src = patent US20210188775A1

- TESTED_SYSTEM: TEAD2 (Homo sapiens, UniProt Q15562)
- Sequence (Q15562 whole entry, species assumed): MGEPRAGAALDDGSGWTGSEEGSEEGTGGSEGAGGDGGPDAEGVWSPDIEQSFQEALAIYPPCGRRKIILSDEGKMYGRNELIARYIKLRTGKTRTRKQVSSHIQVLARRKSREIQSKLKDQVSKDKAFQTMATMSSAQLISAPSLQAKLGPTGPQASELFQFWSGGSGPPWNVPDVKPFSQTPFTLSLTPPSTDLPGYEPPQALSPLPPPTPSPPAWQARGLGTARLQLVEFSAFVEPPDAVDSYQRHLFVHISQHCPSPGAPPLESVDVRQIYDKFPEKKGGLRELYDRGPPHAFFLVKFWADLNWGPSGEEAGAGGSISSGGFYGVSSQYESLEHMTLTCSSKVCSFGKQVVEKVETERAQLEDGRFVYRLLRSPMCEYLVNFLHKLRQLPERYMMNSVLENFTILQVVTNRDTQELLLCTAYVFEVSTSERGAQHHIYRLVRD
- PROCEDURE_DETAILS: TEAD lipid assay (Lipid FP, Bodipy-C16 probe displacement)
- Format: binding
- ASSAY_SETUP: fluorescence polarization, His-tagged TEAD, 60 minutes incubation
- Procedure: A TEAD lipid assay was done according to the following method. His-tagged TEAD proteins were pre-incubated with a Bodipy-C16 FP probe (Life Technologies Cat #D3821) for 30 minutes at room temperature to pre-form TEAD-probe complex. […] Duplicate 10 point dose response curves were generated for each test compound. The potency of compounds as TEAD lipid pocket binders was determined by IC50 value generated using a non-linear 4 parameter curve fit.
pIC50: −log10 of the molar value.
MEASUREMENT_NAME: pIC50

INSERT INTO results (compound, measurement_name, experimental_value) VALUES
  ('COc1ccc(NS(=O)(=O)C2CC2)cc1/C=C/C1CCCCC1 [Compound 28]', 'pIC50', 6.05),
  ('COc1ccc(NS(C)(=O)=O)cc1[C@H]1C[C@H](c2cccc(F)c2)C1 (single isomer, unassigned) [Compound 8A]', 'pIC50', 6.13),
  ('COc1cc(F)c(NS(C)(=O)=O)cc1-c1ccc(C(C)C)cc1 [Compound 12]', 'pIC50', 6.23);
